protocolSummary: Plasma concentration following multiple oral dosing in rat
Assay type: in vivo, Sprague-Dawley rats
measurementContext: both sexes, Sprague-Dawley, plasma, po, 100 mg/kg/day, 100 mg/kg/day oral, Day 1, aqueous suspension of spray-dried dispersion of Example 4 (part B), mean, read-out: AUC
measurementName: AUC (ng·h/mL)

compound: CC(C)(C)c1ccc2c(c1)CCC2NC(=O)Nc1cccc2[nH]ncc12 (stereo in doubt) [ABT-102]
observedMeasurement: 32600

###

protocolSummary: in vivo
measurementContext: rat, po, 100 mg/kg, Tmax

molecule: CC(C)(C)c1ccc2c(c1)CCC2NC(=O)Nc1cccc2[nH]ncc12 (stereo in doubt)
Tmax (h): 4.3

###

protocolSummary: Plasma concentration following multiple oral dosing in rat
Format: in vivo, Sprague-Dawley rats
measurementContext: both sexes, Sprague-Dawley, plasma, po, 30 mg/kg/day, 30 mg/kg/day oral, Day 8, aqueous suspension of spray-dried dispersion of Example 4 (part B), harmonic mean

compound: CC(C)(C)c1ccc2c(c1)CCC2NC(=O)Nc1cccc2[nH]ncc12 (stereo in doubt)
outputUnit: h
half-life: 5.3

###

protocolSummary: Plasma concentration following multiple oral dosing in rat
Format: in vivo, Sprague-Dawley rats
measurementContext: both sexes, Sprague-Dawley, plasma, po, 30 mg/kg/day, 30 mg/kg/day oral, Day 1, aqueous suspension of spray-dried dispersion of Example 4 (part B), mean
Protocol: A study was conducted to explore the ABT-102 plasma concentrations following multiple oral dosing in rat. In this study, a 10, 30 or 100 mg/kg/day oral dose was administered once daily for eight consecutive days. The compound was prepared as a suspension of the spray dried material in water at concentrations appropriate for a 20 ml/kg/day dose volume in each treatment group. […] Plasma concentrations of parent drug were determined on the first (Day 1) and last (Day 8) of dosing.
measurementName: Tmax (h)

compound: CC(C)(C)c1ccc2c(c1)CCC2NC(=O)Nc1cccc2[nH]ncc12 (stereo in doubt) [ABT-102]
observedMeasurement: 3

###

protocolSummary: Plasma concentration following multiple oral dosing in rat
Type: in vivo, Sprague-Dawley rats
measurementContext: both sexes, Sprague-Dawley, plasma, po, 100 mg/kg/day, 100 mg/kg/day oral, Day 8, aqueous suspension of spray-dried dispersion of Example 4 (part B), mean

compound: CC(C)(C)c1ccc2c(c1)CCC2NC(=O)Nc1cccc2[nH]ncc12 (stereo in doubt)
outputUnit: h
Tmax: 4.5

###

protocolSummary: Plasma concentration following multiple oral dosing in rat
Type: in vivo, Sprague-Dawley rats
measurementContext: both sexes, Sprague-Dawley, plasma, po, 100 mg/kg/day, 100 mg/kg/day oral, Day 1, aqueous suspension of spray-dried dispersion of Example 4 (part B), mean
Method: A study was conducted to explore the ABT-102 plasma concentrations following multiple oral dosing in rat. In this study, a 10, 30 or 100 mg/kg/day oral dose was administered once daily for eight consecutive days. The compound was prepared as a suspension of the spray dried material in water at concentrations appropriate for a 20 ml/kg/day dose volume in each treatment group. […] Plasma concentrations of parent drug were determined on the first (Day 1) and last (Day 8) of dosing.

compound: CC(C)(C)c1ccc2c(c1)CCC2NC(=O)Nc1cccc2[nH]ncc12 (stereo in doubt)
outputUnit: h
Tmax: 5

###

protocolSummary: in vivo
measurementContext: rat, po, 100 mg/kg, t1/2
measurementName: half-life (h)

compound: CC(C)(C)c1ccc2c(c1)CCC2NC(=O)Nc1cccc2[nH]ncc12 (stereo in doubt) [ABT-102]
observedMeasurement: 4.4

###

protocolSummary: Plasma concentration following multiple oral dosing in rat
Type: in vivo, Sprague-Dawley rats
measurementContext: both sexes, Sprague-Dawley, plasma, po, 30 mg/kg/day, 30 mg/kg/day oral, Day 1, aqueous suspension of spray-dried dispersion of Example 4 (part B), harmonic mean

compound: CC(C)(C)c1ccc2c(c1)CCC2NC(=O)Nc1cccc2[nH]ncc12 (stereo in doubt)
outputUnit: h
half-life: 7.8

###

protocolSummary: Plasma concentration following multiple oral dosing in rat
Type: in vivo, Sprague-Dawley rats
measurementContext: both sexes, Sprague-Dawley, plasma, po, 100 mg/kg/day, 100 mg/kg/day oral, Day 8, aqueous suspension of spray-dried dispersion of Example 4 (part B), harmonic mean
measurementName: half-life (h)

compound: CC(C)(C)c1ccc2c(c1)CCC2NC(=O)Nc1cccc2[nH]ncc12 (stereo in doubt) [ABT-102]
observedMeasurement: 5.6

###

protocolSummary: Plasma concentration following multiple oral dosing in rat
Format: in vivo, Sprague-Dawley rats
measurementContext: both sexes, Sprague-Dawley, plasma, po, 10 mg/kg/day, 10 mg/kg/day oral, Day 1, aqueous suspension of spray-dried dispersion of Example 4 (part B), mean

compound: CC(C)(C)c1ccc2c(c1)CCC2NC(=O)Nc1cccc2[nH]ncc12 (stereo in doubt) [ABT-102]
Cmax (ng/mL): 730

###

protocolSummary: Plasma concentration following multiple oral dosing in rat
Assay type: in vivo, Sprague-Dawley rats
measurementContext: both sexes, Sprague-Dawley, plasma, po, 30 mg/kg/day, 30 mg/kg/day oral, Day 1, aqueous suspension of spray-dried dispersion of Example 4 (part B), mean, read-out: AUC
measurementName: AUC (ng·h/mL)

compound: CC(C)(C)c1ccc2c(c1)CCC2NC(=O)Nc1cccc2[nH]ncc12 (stereo in doubt) [ABT-102]
observedMeasurement: 22200

###

protocolSummary: Plasma concentration following multiple oral dosing in rat
Type: in vivo, Sprague-Dawley rats
measurementContext: both sexes, Sprague-Dawley, plasma, po, 30 mg/kg/day, 30 mg/kg/day oral, Day 1, aqueous suspension of spray-dried dispersion of Example 4 (part B), mean
Description: A study was conducted to explore the ABT-102 plasma concentrations following multiple oral dosing in rat. In this study, a 10, 30 or 100 mg/kg/day oral dose was administered once daily for eight consecutive days. The compound was prepared as a suspension of the spray dried material in water at concentrations appropriate for a 20 ml/kg/day dose volume in each treatment group. […] Plasma concentrations of parent drug were determined on the first (Day 1) and last (Day 8) of dosing.
measurementName: Cmax (ng/mL)

compound: CC(C)(C)c1ccc2c(c1)CCC2NC(=O)Nc1cccc2[nH]ncc12 (stereo in doubt)
outputUnit: ng/mL
observedMeasurement: 1390

###

protocolSummary: Plasma concentration following multiple oral dosing in rat
Assay type: in vivo, Sprague-Dawley rats
measurementContext: both sexes, Sprague-Dawley, plasma, po, 100 mg/kg/day, 100 mg/kg/day oral, Day 8, aqueous suspension of spray-dried dispersion of Example 4 (part B), mean
measurementName: Cmax

compound: CC(C)(C)c1ccc2c(c1)CCC2NC(=O)Nc1cccc2[nH]ncc12 (stereo in doubt)
measurementName: Cmax
observedMeasurement: 2610 ng/mL

###

protocolSummary: Plasma concentration following multiple oral dosing in rat
Assay type: in vivo, Sprague-Dawley rats
measurementContext: both sexes, Sprague-Dawley, plasma, po, 10 mg/kg/day, 10 mg/kg/day oral, Day 8, aqueous suspension of spray-dried dispersion of Example 4 (part B), harmonic mean
measurementName: half-life (h)

compound: CC(C)(C)c1ccc2c(c1)CCC2NC(=O)Nc1cccc2[nH]ncc12 (stereo in doubt)
outputUnit: h
observedMeasurement: 5.4

###

protocolSummary: Plasma concentration following multiple oral dosing in rat
Type: in vivo, Sprague-Dawley rats
measurementContext: both sexes, Sprague-Dawley, plasma, po, 30 mg/kg/day, 30 mg/kg/day oral, Day 8, aqueous suspension of spray-dried dispersion of Example 4 (part B), mean

molecule: CC(C)(C)c1ccc2c(c1)CCC2NC(=O)Nc1cccc2[nH]ncc12 (stereo in doubt) [ABT-102]
Cmax: 1320 ng/mL

###

protocolSummary: in vivo
measurementContext: rat, po, 100 mg/kg, AUC
Procedure: A study was conducted to evaluate effect of aging on the ABT-102 bioavailability obtained from suspensions of the spray dried material. Suspensions were prepared by stirring in water for 15 minutes at room temperature (5 mg/ml concentration). […] Each of the aged suspension was evaluated in a group of three rats at a dose of 100 mg/kg (20 ml/kg). All four test formulations were evaluated in the same study. Plasma concentrations of parent drug were determined by HPLC-MS/MS.
measurementName: AUC (ng·h/mL)

compound: CC(C)(C)c1ccc2c(c1)CCC2NC(=O)Nc1cccc2[nH]ncc12 (stereo in doubt) [ABT-102]
outputUnit: ng·h/mL
observedMeasurement: 12400

###

protocolSummary: Plasma concentration following multiple oral dosing in rat
Format: in vivo, Sprague-Dawley rats
measurementContext: both sexes, Sprague-Dawley, plasma, po, 10 mg/kg/day, 10 mg/kg/day oral, Day 1, aqueous suspension of spray-dried dispersion of Example 4 (part B), mean
measurementName: Tmax

compound: CC(C)(C)c1ccc2c(c1)CCC2NC(=O)Nc1cccc2[nH]ncc12 (stereo in doubt)
observedMeasurement: 2.3 h

###

protocolSummary: Plasma concentration following multiple oral dosing in rat
Format: in vivo, Sprague-Dawley rats
measurementContext: both sexes, Sprague-Dawley, plasma, po, 100 mg/kg/day, 100 mg/kg/day oral, Day 1, aqueous suspension of spray-dried dispersion of Example 4 (part B), mean

molecule: CC(C)(C)c1ccc2c(c1)CCC2NC(=O)Nc1cccc2[nH]ncc12 (stereo in doubt)
Cmax, µg/mL: 2.13
